assay: AUC (0 to infinity) in Sprague-Dawley rat at 25 mg/kg, ip up to 24 hrs post dose by LC/MS/MS analysis; type: ADME, organism-based; design: dose 25 mg/kg, time infinity, route intraperitoneal; details: in vivo
ENDPOINT_LABEL: AUC(0-inf) (ng·h/mL)

| SMI | ENDPOINT_LABEL | RECORDED_NUMBER |
| --- | --- | --- |
| Cc1cc(NC(=O)Nc2ccc(-c3ccnc4[nH]nc(C)c34)cc2)ccc1N1CCOCC1 | AUC(0-inf) | 713 |

* * *

biological target: UniProt:P36888; experiment: Inhibition of FLT3 (unknown origin) using FAM-labeled peptide as substrate preincubated for 10 mins followed by substrate addition in presence of ATP by mobility shift assay
Sequence (P36888 whole entry): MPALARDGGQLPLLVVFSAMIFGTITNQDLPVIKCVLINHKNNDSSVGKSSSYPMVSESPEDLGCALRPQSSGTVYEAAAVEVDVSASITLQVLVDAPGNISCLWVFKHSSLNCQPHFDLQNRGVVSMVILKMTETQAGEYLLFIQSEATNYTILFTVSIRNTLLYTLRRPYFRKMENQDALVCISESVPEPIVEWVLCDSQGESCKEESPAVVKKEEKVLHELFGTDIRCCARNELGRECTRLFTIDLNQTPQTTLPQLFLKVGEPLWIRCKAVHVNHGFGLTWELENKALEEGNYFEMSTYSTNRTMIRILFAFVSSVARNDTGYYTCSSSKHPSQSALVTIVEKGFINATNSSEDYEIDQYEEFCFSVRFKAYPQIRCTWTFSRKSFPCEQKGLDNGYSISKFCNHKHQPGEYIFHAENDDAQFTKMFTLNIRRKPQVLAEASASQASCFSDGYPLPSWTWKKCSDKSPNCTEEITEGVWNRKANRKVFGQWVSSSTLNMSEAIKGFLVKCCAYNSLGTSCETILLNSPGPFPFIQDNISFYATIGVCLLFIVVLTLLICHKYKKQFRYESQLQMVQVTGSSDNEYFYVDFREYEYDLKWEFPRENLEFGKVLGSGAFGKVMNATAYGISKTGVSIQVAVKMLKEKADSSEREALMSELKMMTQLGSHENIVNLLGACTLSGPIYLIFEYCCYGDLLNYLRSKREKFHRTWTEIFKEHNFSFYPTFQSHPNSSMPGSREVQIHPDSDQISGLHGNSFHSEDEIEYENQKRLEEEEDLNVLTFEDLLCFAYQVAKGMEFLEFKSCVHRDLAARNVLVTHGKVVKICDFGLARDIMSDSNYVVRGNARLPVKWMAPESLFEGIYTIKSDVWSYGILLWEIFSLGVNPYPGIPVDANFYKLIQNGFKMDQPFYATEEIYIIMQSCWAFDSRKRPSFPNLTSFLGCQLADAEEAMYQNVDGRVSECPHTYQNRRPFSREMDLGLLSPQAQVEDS
ENDPOINT_LABEL: IC50 (µM)

| SMI | ENDPOINT_LABEL | UNIT_DESCRIPTOR | RECORDED_NUMBER |
| --- | --- | --- | --- |
| Cc1cccc(NC(=O)Nc2ccc(-c3ccnc4[nH]nc(C)c34)cc2)c1 | IC50 | µM | 1.88 |

* * *

assay: Cmax in Sprague-Dawley rat at 2 mg/kg, iv up to 24 hrs post dose by LC/MS/MS analysis; assay type: ADME, organism-based; parameters: dose 2 mg/kg, route intravenous; details: in vivo

| SMI | Cmax, ng/mL |
| --- | --- |
| Cc1cc(NC(=O)Nc2ccc(-c3ccnc4[nH]nc(C)c34)cc2)ccc1N1CCOCC1 | 1890 |

* * *

target: Voltage-gated inwardly rectifying potassium channel KCNH2 (Homo sapiens, UniProt Q12809); assay: Inhibition of human ERG expressed in CHO cells by whole cell patch clamp assay
Sequence (Q12809 whole entry): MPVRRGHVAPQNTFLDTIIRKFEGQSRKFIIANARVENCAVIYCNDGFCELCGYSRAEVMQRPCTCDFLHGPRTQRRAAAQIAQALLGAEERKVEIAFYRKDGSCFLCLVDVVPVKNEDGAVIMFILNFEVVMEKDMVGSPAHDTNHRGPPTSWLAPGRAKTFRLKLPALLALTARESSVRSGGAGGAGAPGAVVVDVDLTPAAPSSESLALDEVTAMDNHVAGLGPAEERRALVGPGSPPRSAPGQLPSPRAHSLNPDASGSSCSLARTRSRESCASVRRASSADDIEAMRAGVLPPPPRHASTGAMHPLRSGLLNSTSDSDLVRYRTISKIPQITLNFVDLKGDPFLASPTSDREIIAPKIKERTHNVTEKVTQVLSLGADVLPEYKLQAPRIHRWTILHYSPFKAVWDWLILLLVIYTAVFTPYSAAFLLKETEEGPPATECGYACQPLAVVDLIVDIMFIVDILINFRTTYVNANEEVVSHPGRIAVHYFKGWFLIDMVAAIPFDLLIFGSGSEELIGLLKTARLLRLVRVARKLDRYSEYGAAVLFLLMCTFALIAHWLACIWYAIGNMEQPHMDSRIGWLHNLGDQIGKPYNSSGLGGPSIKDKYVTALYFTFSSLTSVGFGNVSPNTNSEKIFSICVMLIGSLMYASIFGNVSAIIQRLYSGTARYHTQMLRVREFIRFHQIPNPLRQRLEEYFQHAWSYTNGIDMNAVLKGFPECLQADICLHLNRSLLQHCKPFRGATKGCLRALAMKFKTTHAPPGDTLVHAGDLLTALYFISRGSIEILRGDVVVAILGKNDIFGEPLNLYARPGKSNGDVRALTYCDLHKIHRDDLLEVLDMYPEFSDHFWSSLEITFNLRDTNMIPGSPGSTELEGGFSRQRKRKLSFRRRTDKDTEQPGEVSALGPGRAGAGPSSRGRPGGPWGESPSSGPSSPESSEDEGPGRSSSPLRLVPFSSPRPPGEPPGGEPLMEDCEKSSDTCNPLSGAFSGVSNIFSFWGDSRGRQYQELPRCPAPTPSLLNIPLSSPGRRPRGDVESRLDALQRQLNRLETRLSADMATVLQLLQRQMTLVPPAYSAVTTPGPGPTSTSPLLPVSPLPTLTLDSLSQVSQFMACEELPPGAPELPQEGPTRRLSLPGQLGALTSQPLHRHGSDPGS

| SMI | EXPERIMENTAL_SYSTEM | IC50 |
| --- | --- | --- |
| Cc1cc(NC(=O)Nc2ccc(-c3ccnc4[nH]nc(C)c34)cc2)ccc1N1CCOCC1 | Voltage-gated inwardly rectifying potassium channel KCNH2 (Homo sapiens, UniProt Q12809) | > 40 µM |

* * *

target: Proto-oncogene tyrosine-protein kinase receptor Ret (Homo sapiens, UniProt P07949)
Sequence (P07949 whole entry): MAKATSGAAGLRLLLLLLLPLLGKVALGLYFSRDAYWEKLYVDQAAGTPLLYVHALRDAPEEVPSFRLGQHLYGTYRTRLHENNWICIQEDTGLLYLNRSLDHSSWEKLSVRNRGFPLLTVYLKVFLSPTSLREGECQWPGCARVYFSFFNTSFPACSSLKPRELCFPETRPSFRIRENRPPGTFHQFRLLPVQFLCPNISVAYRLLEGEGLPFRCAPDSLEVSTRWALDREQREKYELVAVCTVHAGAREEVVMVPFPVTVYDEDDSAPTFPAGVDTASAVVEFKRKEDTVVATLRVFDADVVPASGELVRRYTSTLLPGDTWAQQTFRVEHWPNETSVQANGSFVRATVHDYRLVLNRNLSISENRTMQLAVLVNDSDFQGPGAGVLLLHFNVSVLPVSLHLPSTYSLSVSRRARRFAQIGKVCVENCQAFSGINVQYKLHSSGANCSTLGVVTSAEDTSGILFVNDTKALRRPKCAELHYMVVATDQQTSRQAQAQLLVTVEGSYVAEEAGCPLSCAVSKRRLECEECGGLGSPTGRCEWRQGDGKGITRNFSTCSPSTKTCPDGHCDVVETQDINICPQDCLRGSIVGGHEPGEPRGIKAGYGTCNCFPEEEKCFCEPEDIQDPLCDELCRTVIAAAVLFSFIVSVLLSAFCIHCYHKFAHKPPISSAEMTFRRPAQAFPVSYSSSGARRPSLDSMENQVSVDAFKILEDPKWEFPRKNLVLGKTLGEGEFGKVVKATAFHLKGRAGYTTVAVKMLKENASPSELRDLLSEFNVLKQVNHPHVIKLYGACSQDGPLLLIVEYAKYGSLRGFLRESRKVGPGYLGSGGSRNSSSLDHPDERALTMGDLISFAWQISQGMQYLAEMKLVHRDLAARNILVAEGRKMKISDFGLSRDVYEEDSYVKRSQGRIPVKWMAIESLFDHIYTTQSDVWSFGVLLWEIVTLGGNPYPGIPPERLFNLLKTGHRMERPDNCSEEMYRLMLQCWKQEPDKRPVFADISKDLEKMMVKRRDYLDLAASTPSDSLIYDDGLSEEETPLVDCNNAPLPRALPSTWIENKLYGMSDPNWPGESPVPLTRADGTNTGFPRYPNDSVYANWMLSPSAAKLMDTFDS

| SMI | IC50 |
| --- | --- |
| Cc1cc(NC(=O)Nc2ccc(-c3ccnc4[nH]nc(C)c34)cc2)ccc1N1CCOCC1 | > 1000 nM |

* * *

experiment: MRT (0 to infinity) in Sprague-Dawley rat at 100 mg/kg, ip up to 24 hrs post dose by LC/MS/MS analysis; format: ADME, organism-based; settings: in vivo

| SMI | UNIT_DESCRIPTOR | MRT inf |
| --- | --- | --- |
| Cc1cc(NC(=O)Nc2ccc(-c3ccnc4[nH]nc(C)c34)cc2)ccc1N1CCOCC1 | h | 14.8 |

* * *

assay: Antiproliferative activity against mouse BAF3 cells assessed as cell growth inhibition after 72 hrs by cell titer-glo assay; format: cell-based
ENDPOINT_LABEL: GI50 at 72 h (µM)

| SMI | RECORDED_NUMBER |
| --- | --- |
| Cc1cc(NC(=O)Nc2ccc(-c3ccnc4[nH]nc(C)c34)cc2)ccc1N1CCOCC1 | 4.03 |
| Cc1ccc(NC(=O)c2ccc(CN3CCN(C)CC3)cc2)cc1Nc1nccc(-c2cccnc2)n1 | 4.69 |

* * *

biological target: Vascular endothelial growth factor receptor 1 (Homo sapiens); experiment: Inhibition of VEGFR1 (unknown origin) using FAM-labeled peptide as substrate preincubated for 10 mins followed by substrate addition in presence of ATP by mobility shift assay
Sequence (P17948 whole entry): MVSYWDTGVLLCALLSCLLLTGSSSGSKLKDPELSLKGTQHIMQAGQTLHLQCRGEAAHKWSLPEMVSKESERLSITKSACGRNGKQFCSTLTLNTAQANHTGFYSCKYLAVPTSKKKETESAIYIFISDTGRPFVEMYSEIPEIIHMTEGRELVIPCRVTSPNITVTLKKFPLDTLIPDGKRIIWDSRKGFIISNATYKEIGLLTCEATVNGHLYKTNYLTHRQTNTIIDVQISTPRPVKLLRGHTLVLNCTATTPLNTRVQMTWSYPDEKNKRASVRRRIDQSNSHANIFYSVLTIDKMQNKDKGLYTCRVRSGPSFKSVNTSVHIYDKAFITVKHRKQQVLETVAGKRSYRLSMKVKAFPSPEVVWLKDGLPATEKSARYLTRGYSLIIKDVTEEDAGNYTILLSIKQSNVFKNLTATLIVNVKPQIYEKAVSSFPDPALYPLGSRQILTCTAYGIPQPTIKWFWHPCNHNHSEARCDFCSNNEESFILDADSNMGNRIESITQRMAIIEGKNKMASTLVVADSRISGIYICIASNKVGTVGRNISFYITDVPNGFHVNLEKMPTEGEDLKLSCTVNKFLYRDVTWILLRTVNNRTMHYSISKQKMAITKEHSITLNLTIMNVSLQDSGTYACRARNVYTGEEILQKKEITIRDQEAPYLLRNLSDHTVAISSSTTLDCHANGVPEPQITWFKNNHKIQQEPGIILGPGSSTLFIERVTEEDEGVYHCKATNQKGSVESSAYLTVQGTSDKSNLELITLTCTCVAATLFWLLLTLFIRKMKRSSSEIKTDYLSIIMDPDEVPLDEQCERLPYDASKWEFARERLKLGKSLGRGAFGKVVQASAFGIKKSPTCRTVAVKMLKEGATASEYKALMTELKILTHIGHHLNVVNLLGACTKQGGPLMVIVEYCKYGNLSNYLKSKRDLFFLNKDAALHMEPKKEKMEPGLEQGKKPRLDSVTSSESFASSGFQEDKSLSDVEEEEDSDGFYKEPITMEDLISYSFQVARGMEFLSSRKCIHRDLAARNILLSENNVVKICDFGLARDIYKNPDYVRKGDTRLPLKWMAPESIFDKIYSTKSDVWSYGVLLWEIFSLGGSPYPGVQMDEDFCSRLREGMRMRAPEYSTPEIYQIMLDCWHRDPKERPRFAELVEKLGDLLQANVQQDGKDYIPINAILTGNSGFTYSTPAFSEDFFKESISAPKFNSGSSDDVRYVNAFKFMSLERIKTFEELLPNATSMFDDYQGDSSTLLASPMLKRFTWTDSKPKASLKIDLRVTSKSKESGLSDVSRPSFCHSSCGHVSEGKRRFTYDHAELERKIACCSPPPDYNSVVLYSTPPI

| SMI | IC50 [µM] |
| --- | --- |
| Cc1cccc(NC(=O)Nc2ccc(-c3ccnc4[nH]nc(C)c34)cc2)c1 | 3.49 |
